molecular target: EGFR WT in Ba/F3 cells (Homo sapiens (Human), UniProt P00533); experiment: Ba/F3 pEGFR assay (AlphaLISA p-EGFR Tyr1068); settings: 2 hrs treatment, media supplemented with EGF
Sequence (P00533 25-1210): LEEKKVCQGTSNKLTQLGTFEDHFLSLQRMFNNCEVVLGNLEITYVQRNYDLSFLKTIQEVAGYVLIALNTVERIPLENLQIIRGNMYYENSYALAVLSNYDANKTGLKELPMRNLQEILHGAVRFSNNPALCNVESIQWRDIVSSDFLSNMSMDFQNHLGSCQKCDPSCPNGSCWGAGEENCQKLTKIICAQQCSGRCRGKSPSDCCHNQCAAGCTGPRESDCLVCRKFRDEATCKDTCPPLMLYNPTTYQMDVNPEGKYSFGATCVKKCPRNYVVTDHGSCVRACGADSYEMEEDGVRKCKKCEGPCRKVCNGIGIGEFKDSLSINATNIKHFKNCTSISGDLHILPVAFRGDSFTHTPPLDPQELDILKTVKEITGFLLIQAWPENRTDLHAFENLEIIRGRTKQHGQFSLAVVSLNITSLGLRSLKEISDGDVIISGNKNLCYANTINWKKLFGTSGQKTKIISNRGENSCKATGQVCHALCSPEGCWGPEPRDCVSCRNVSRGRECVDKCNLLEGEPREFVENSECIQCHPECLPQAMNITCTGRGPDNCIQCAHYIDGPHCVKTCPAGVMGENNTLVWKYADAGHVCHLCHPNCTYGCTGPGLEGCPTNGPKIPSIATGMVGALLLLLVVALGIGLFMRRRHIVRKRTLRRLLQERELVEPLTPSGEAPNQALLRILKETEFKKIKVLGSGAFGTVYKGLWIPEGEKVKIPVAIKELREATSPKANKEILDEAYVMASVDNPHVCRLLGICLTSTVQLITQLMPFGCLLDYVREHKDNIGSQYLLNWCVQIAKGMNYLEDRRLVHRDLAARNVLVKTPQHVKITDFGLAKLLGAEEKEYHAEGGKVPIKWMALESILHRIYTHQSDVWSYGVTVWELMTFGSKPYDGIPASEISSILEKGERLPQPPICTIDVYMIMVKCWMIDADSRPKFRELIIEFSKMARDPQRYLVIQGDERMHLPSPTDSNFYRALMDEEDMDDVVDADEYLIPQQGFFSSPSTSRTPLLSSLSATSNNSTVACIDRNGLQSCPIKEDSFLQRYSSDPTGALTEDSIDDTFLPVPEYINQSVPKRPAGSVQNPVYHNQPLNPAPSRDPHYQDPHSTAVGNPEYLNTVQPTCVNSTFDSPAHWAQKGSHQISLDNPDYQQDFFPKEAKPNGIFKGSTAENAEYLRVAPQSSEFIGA
VALUE KIND: IC50 (nM)
Kindly provide the numeric value in nM only, without the unit symbol.

Which IC50 reading was recorded for the compound `CN(C)C/C=C/C(=O)N1CCCC[C@@H](n2c(NC(=O)c3ccnc(-n4cc(-c5cccc(O)c5C=O)cn4)c3)nc3cccc(Cl)c32)C1` ?
4900

Which IC50 reading was recorded for the compound `CC(C)(O)Cn1/c(=N/C(=O)c2ccnc(Oc3cccc(O)c3C=O)c2)[nH]c2ccc(CN3CC(C(C)(C)O)C3)cc21` ?
4090

Which IC50 reading was recorded for the compound `Cc1ccc(C(=O)/N=c2\[nH]c3ccc(CN4CCN(C)CC4)cc3n2CC(C)(C)O)cc1Oc1cccc(O)c1C=O` ?
1130

Which IC50 reading was recorded for the compound `CN1CCN(Cc2ccc3[nH]/c(=N\C(=O)c4cncc(Oc5cccc(O)c5C=O)c4)n(CC(C)(C)O)c3c2)CC1` ?
1430

Which IC50 reading was recorded for the compound `CN1CCN(Cc2ccc3[nH]/c(=N\C(=O)c4ccnc(Oc5cccc(O)c5C=O)c4)n(CC(C)(C)O)c3c2)CC1` ?
1420

----------
target: EGFR WT in Ba/F3 cells (Homo sapiens (Human), UniProt P00533); test: Ba/F3 pEGFR assay (AlphaLISA p-EGFR Tyr1068); type: cell-based; conditions: 2 hrs treatment, media supplemented with EGF
Kindly state IC50 for each of the entries shown.
Kindly provide the numeric value in µM only, without the unit symbol.

Query IC50 on EGFR WT in Ba/F3 cells (Homo sapiens (Human), UniProt P00533) for `CN1CCN(Cc2ccc3[nH]/c(=N\C(=O)c4ccnc(Oc5ccccc5C=O)c4)n(CC(C)(C)O)c3c2)CC1`
9.06

Query IC50 on EGFR WT in Ba/F3 cells (Homo sapiens (Human), UniProt P00533) for `CC(C)c1ccc(N2CC(CS(C)(=O)=O)C2)c2cnc(Nc3ccnc(-n4cc(-c5cccc(O)c5C=O)cn4)n3)cc12`
6.85

Query IC50 on EGFR WT in Ba/F3 cells (Homo sapiens (Human), UniProt P00533) for `CN1CCN(Cc2ccc3[nH]/c(=N\C(=O)c4ccnc(Oc5c(F)ccc(O)c5C=O)c4)n(CC(C)(C)O)c3c2)CC1`
3.47

----------
target: EGFR WT (Homo sapiens (Human))
Sequence (P00533 668-1210): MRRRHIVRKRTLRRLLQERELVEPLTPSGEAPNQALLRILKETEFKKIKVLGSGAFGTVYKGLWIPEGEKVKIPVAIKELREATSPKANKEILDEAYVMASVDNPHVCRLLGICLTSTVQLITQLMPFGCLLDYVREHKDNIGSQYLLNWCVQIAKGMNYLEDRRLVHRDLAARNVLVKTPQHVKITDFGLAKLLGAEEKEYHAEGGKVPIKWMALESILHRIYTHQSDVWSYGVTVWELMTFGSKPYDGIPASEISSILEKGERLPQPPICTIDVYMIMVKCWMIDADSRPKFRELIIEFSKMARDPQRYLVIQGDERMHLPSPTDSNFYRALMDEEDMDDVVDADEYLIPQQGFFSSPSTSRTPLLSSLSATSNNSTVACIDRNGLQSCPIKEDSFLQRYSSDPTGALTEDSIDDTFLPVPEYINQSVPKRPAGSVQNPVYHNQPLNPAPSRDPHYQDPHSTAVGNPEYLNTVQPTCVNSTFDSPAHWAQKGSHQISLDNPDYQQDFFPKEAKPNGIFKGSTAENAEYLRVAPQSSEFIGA
pIC50: −log10 of the molar value.
Decide using pIC50: a value greater than or equal to 7 is Criterion met, a smaller one is Criterion not met.

Does the molecule CC(C)c1ccc(N2CC(CS(C)(=O)=O)C2)c2cnc(Nc3ccnc(N(C)CCc4cccc(O)c4C=O)n3)cc12 [Compound 45] have recorded pIC50 that is 7 or more?
Criterion not met

Does the molecule CN1CCN(Cc2ccc3[nH]/c(=N\C(=O)c4ccc(Oc5cccc(O)c5C=O)cc4)n(CC(C)(C)O)c3c2)CC1 [Compound 105] have recorded pIC50 that is 7 or more?
Criterion not met

Does the molecule CC(C)c1ccc(N2CC(CS(C)(=O)=O)C2)c2cnc(Nc3ccnc(COc4cccc(O)c4C=O)n3)cc12 [Compound 42] have recorded pIC50 that is 7 or more?
Criterion not met

Does the molecule CN1CCN(Cc2ccc3[nH]/c(=N\C(=O)c4cccc(Oc5cccc(O)c5C=O)n4)n(CC(C)(C)O)c3c2)CC1 [Compound 93] have recorded pIC50 that is 7 or more?
Criterion not met

Does the molecule COc1cc(N2CCC(N3CCN(C)CC3)CC2)ccc1Nc1ncc(C#Cc2cccc(C=O)c2O)c(Nc2ccccc2)n1 [Compound 16] have recorded pIC50 that is 7 or more?
Criterion met

Does the molecule O=Cc1c(O)cccc1Oc1cc(C(=O)/N=c2\[nH]c3ccccc3n2CCN2CCOCC2)ccn1 [Compound 123] have recorded pIC50 that is 7 or more?
Criterion not met
